Give self-cleavage kobs at 40 uM GlcN6P for every item shown.
B1: glmS ribozyme (parent)
chain: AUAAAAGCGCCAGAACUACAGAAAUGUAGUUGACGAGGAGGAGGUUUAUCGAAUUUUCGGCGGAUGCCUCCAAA

variants of: B1; assay: self-cleavage kobs at 40 uM GlcN6P; higher = faster cleavage; RNA array; details: with glucosamine-6-phosphate
Variants at the floor of the assay were thinned out.

Example entries begin here.
| Seq text | self-cleavage kobs at 40 uM GlcN6P |
| --- | --- |
| AUAAAAGCGCCAGAACUACAGAAAUGUAGUCGCCGGGGAGGAGGUUUAUCGAAUUUUCGGCGGAUGCCUCGAAA [U31C A33C A36G C71G] | < 1e-05 s⁻¹ |
| AUAAAAGCGCCAGAACUACAGAAAUGUAGUGGACGAGGAGGAUGUUUAUCGAAAUUUCGGCGGAUGCCUCCAAA [U31G G43U U54A] | < 1e-05 s⁻¹ |
| AUAAAAGCGCCAGAACUACAGAAAUGUAGUUGACGAGGAGGAGGUUUAUAGAAUUUUCGGCGGAUGGCUCCAAA [C50A C67G] | 1.98e-05 s⁻¹ |
| AUAAAAGCGCGAGAACUACAGAAAUGUAGUUGACGAGGAGGAGGUAUAUCGAAUUUUCGGCGGAUGGCUCCAAA [C11G U46A C67G] | < 1e-05 s⁻¹ |
| AUAAAAGCGCCAGAACUACAGAAAUGUAGUUGAAGAGGAGGAGGUUUAUCGAAUUUUCUGCGGAUGCCUCCAAA [C34A G59U] | < 1e-05 s⁻¹ |

// each variant listed below needs its self-cleavage kobs at 40 uM GlcN6P
1. AUAAAAGCGCCCGAACUACAGAAAUGUAGUUGACGAGGAGUAGGUUUAUCGAAUUUUCGGCGGAUGCCUCCAAA [A12C G41U]
2. AUAAAAGCGCCAGAACUACAGAAAUGUAUUUGACGAGGAGGAGGUUAAUCGAAUUUGCGGCGGAUGCCUCCAAA [G29U U47A U57G]
3. AUAAAAGCGCCAGAGCUACAGAAAUGUAGUUGACGAGGAGGAUGUUUCUCGAAUUUUCGGCGGAUGCCUCCAAA [A15G G43U A48C]
4. AUAAAAGAGCUAGAUCUACAGAAAUGUAGUUGACGAGGAGGAGGUUUAUGGAAUUAUCGGCGAAUGCCUCCAAA [C8A C11U A15U C50G U56A G63A]
5. AUAAAAGCGCCAGAACUACAGAAAUGUAGUUGACGAGGACGAAGUUUAUCGAAUUUUCGGCGGAUGCCUCCAAA [G40C G43A]
6. AUAAAAGCGCCAGAACUACAGAAAUGUAGUUGACGAGGAGGAGGUCUAUCGAAUUUUCGGCGGAUACCUCCAAA [U46C G66A]
7. AUAAAAGCGCCAGGUCUACAGAAAUGUAAUUGACGAGGAGGAGGUUUAUCGAAUUUUCGGCGGAUGCCUCCAAA [A14G A15U G29A]
8. AUAAAAGCGCCAGAACUACAGAAAUGUAGUUGACGAGGAGUAGGUUUAUCGAAUUUUCGGCGGAUCCUUCCAAA [G41U G66C C68U]

5.28e-05 s⁻¹
< 1e-05 s⁻¹
< 1e-05 s⁻¹
5.94e-05 s⁻¹
< 1e-05 s⁻¹
5.14e-05 s⁻¹
3.49e-05 s⁻¹
< 1e-05 s⁻¹
